TESTED_ON: Neuronal acetylcholine receptor; alpha4/beta2 (Homo sapiens, UniProt P17787+P43681)
Sequence (P17787 whole entry): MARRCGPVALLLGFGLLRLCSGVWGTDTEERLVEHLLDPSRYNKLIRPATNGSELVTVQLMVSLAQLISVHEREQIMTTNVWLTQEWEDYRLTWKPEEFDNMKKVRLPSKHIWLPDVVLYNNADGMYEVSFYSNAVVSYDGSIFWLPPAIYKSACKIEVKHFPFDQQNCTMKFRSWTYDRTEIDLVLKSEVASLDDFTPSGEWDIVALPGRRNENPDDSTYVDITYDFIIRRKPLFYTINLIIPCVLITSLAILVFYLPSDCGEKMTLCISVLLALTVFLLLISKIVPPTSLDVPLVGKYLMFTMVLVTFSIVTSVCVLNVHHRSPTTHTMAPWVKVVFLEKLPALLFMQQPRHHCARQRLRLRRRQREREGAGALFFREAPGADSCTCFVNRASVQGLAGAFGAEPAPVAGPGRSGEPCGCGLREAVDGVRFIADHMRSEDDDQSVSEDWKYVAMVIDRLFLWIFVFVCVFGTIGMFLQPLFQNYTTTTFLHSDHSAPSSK
Sequence (P43681 whole entry): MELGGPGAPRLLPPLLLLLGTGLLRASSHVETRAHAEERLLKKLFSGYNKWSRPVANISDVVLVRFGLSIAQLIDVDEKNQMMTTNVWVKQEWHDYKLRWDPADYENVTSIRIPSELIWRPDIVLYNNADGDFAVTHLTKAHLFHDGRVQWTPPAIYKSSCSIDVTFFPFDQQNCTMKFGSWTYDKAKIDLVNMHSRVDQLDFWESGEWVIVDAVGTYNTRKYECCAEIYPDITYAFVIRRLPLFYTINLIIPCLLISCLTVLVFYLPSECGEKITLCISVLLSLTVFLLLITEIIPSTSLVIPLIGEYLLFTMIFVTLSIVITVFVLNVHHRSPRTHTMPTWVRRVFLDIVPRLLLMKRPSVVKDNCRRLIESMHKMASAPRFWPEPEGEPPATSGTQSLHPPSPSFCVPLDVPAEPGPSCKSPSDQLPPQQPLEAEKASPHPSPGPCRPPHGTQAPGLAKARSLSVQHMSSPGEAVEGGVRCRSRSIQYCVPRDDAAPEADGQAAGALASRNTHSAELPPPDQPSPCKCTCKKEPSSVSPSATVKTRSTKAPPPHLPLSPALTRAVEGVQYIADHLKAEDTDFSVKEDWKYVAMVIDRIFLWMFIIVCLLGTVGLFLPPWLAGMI
EXPERIMENTAL_DETAILS: Displacement of [3H]cytisine from human alpha-4-beta-2 nAChR expressed in SH-EP1 cells
pKi: −log10 of the molar value.
Entries and their pKi values follow.

# COMPOUND, pKi
records = [
    ("COc1cc2c(cc1OC)-c1c(OC)c(O)cc3c1[C@H](C2)[N+](C)(C)CC3 [PREDICENTRINE METHIODIDE]", 6.01),
    ("COc1cc2c(cc1O)C[C@H]1c3c(cc(O)c(OC)c3-2)CCN1C", 5.52),
    ("COc1cc2c(c(Br)c1O)C[C@H]1c3c(c(Br)c(O)c(OC)c3-2)CCN1C", 4.51),
]

###

Entries and their pKi values follow.
TESTED_ON: Neuronal acetylcholine receptor; alpha4/beta2 (Homo sapiens, UniProt P17787+P43681)
EXPERIMENTAL_DETAILS: Displacement of [3H]cytisine from human alpha-4-beta-2 nAChR expressed in SH-EP1 cells
pKi: −log10 of the molar value.

# MOLECULE, pKi
records = [
    ("COc1cc2c(cc1O)C[C@H]1c3c(c(Br)c(O)c(OC)c3-2)CCN1C [3-BROMOBOLDINE]", 4.52),
    ("COc1cc2c(cc1O)C[C@H]1c3c(cc(O)c(OC)c3-2)CC[N+]1(C)C [BOLDINE METHIODIDE]", 5.60),
    ("COc1cc2c(cc1OC)-c1c(OC)c(OC)cc3c1[C@H](C2)[N+](C)(C)CC3 [GLAUCINE METHIODIDE]", 5.00),
    ("COc1cc2c(cc1O)C[C@H]1c3c(cc(OC)c(OC)c3-2)CC[N+]1(C)C", 6.04),
]
